Hi there, I'd appreciate the recorded pA2 - pA10 for every entry that follows.
Target: Beta-2 adrenergic receptor (Cavia porcellus)
Assay: Specific antagonistic activity difference against beta-2 adrenergic receptor of isolated guinea pig tracheal strips
Format: functional
// no unit string in output, number only

Give pA2 - pA10 for this entry on Beta-2 adrenergic receptor (Cavia porcellus): CC(C)(C)NCC(O)CON=C1CCCC1 (configuration not stated)
0.88

Tell me its pA2 - pA10 on Beta-2 adrenergic receptor (Cavia porcellus): CC(C)(C)NCC(O)CON=C1CCCCC1 (configuration not stated)
0.6

Check Beta-2 adrenergic receptor (Cavia porcellus) data and give pA2 - pA10 for CC(C)C(=NOCC(O)CNC(C)(C)C)C(C)C (configuration not stated) .
0.82

Recall the reported pA2 - pA10 of COc1ccc(OC)c(C(O)C(C)NC(C)(C)C)c1 (configuration not stated) [BUTOXAMINE] when tested on Beta-2 adrenergic receptor (Cavia porcellus).
0.93

Please report pA2 - pA10 with Beta-2 adrenergic receptor (Cavia porcellus) for item CCCC(CCC)=NOCC(O)CNC(C)C (configuration not stated) .
0.714

Enter recorded pA2 - pA10 with Beta-2 adrenergic receptor (Cavia porcellus) for CCC(CC)=NOCC(O)CNC(C)(C)C (configuration not stated) here.
0.84

Jot down pA2 - pA10 (Beta-2 adrenergic receptor (Cavia porcellus)) of CCCC(CCC)=NOCC(O)CNC(C)(C)C (configuration not stated) .
0.69

From: ChEMBL document CHEMBL1122883
